Biological target: CLK2 kinase (Homo sapiens)
Sequence (P49760 whole entry): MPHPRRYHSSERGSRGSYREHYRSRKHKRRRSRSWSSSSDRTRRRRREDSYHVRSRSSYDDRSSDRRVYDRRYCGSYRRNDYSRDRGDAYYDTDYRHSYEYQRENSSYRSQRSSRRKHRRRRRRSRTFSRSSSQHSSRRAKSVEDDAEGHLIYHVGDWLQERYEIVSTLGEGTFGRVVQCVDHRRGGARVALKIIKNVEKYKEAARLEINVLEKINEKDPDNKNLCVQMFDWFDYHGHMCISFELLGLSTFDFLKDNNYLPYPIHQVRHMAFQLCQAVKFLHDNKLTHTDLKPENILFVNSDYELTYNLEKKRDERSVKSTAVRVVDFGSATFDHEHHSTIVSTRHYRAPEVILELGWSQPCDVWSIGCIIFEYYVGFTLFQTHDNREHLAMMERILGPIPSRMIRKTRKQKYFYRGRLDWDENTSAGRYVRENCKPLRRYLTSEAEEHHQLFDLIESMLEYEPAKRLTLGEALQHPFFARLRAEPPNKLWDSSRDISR
Assay: CLK2 kinase activity assay (Z-lyte FRET)
Conditions: Z-lyte Ser/Thr 6 peptide, 60 μM ATP, 1 h at room temperature
Rule for this label: True means EC50 is less than 4 nM; False means EC50 is at least 4 nM.

[[record]]
molecule = "Cn1cc(-c2cc3c(C(=O)Nc4ccc(OCCN5CCCC5)cc4)n[nH]c3cc2F)cn1 [compound 108]"
answer_label = "True"

[[record]]
molecule = "CCCC(=O)Nc1cncc(-c2ccc3[nH]nc(-c4nc5c(-c6ccncc6)cncc5[nH]4)c3n2)c1 [compound 196]"
answer_label = "False"

[[record]]
molecule = "c1cc2[nH]c(-c3n[nH]c4ncc(-c5cncc(CN6CCCCC6)c5)cc34)cc2cn1 [compound 451]"
answer_label = "False"

[[record]]
molecule = "Cn1cc(-c2ccc3cnc(NC(=O)c4ccnc(OC5CNC5)c4)cc3c2)cn1 [compound 556]"
answer_label = "True"

[[record]]
molecule = "CC(C)OC(=O)N1CCC(n2cc(C(=O)Nc3cc4cc(-c5cnn(C)c5)ncc4cn3)cn2)CC1 [compound 609]"
answer_label = "False"


###

Biological target: CLK2 kinase (Homo sapiens)
Test: CLK2 kinase activity assay (Z-lyte FRET);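 note: FRET read-out as coumarin to fluorescein emission ratio, unphosphorylated peptide as 0% and phosphorylated peptide as 100% controls, duplicate reactions, non-linear regression fit of dose-response curves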
Conditions: Z-lyte Ser/Thr 6 peptide, 60 μM ATP, 1 h at room temperature
pEC50: −log10 of the molar value.
Assign class by pEC50: not lower than 8 means fulfilled; lower than 8 means not fulfilled.

[[record]]
chemical_string = "c1cncc(-c2cc3c(-c4cc5c(-c6cccnc6)cncc5[nH]4)n[nH]c3cn2)c1"
answer_label = "fulfilled"

[[record]]
chemical_string = "COc1cncc(C(=O)Nc2c[nH]nc2C(=O)Nc2ccc3c(c2)CCNC3)c1"
answer_label = "not fulfilled"

[[record]]
chemical_string = "CN1CCC(n2cc(NC(=O)c3n[nH]c4ccc(-c5cnn(C)c5)cc34)cn2)CC1"
answer_label = "fulfilled"

[[record]]
chemical_string = "CN(C)c1cncc(-c2ccc3[nH]nc(-c4nc5c(-c6cccc(F)c6)ccnc5[nH]4)c3n2)c1"
answer_label = "fulfilled"

[[record]]
chemical_string = "Cc1ccncc1-c1cc2c(-c3nc4c(-c5cc(F)cc(CNS(C)(=O)=O)c5)ccnc4[nH]3)n[nH]c2cn1"
answer_label = "not fulfilled"


###

Target: CLK3 kinase (Homo sapiens)
Sequence (P49761 whole entry): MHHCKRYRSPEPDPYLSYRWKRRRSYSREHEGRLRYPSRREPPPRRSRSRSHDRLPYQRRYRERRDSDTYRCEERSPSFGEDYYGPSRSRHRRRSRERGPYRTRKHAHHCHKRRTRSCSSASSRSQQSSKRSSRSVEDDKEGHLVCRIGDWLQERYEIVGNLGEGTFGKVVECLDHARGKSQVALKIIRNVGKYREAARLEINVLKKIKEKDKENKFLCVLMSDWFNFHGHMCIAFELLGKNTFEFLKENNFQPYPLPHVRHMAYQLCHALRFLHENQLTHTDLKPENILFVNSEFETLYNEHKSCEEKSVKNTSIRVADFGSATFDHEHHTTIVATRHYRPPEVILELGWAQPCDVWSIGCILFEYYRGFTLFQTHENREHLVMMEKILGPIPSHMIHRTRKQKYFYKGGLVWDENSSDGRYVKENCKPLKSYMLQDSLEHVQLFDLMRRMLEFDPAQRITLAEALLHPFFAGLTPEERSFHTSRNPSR
Test: CLK3 kinase activity assay (Z-lyte FRET);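 note: kinase activity read as coumarin/fluorescein emission ratio by FRET, unphosphorylated peptide as 0% and phosphorylated peptide as 100% control, values from non-linear regression of dose-response curves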
Details: Z-lyte Ser/Thr 18 peptide, 156 μM ATP, 1 h at room temperature
pEC50: −log10 of the molar value.
Here, each record is paired with measured pEC50 data.
property measured: pEC50

[[record]]
compound = "CN1CCC(Oc2ccc(NC(=O)c3n[nH]c4cc(F)c(-c5cnn(C)c5)cc34)cn2)CC1 [compound 110]"
recorded_number = 7.32

[[record]]
compound = "COc1cccc(-c2cncc3[nH]c(-c4n[nH]c5ccc(-c6cccnc6)nc45)nc23)c1 [compound 296]"
recorded_number = 7.26

[[record]]
compound = "O=C(Nc1cncc(-c2ccc3[nH]nc(-c4nc5c(-c6ccc(Cl)s6)ccnc5[nH]4)c3n2)c1)C1CCC1 [compound 269]"
recorded_number = 6.74

[[record]]
compound = "O=C(Nc1cncc(-c2cnc3[nH]nc(-c4cc5c(-c6ccccc6F)cncc5[nH]4)c3c2)c1)C1CC1 [compound 329]"
recorded_number = 7.38

[[record]]
compound = "Nc1cncc(-c2ccc3[nH]nc(-c4cc5c(-c6ccncc6)nccc5[nH]4)c3c2)c1 [compound 377]"
recorded_number = 6.95

[[record]]
compound = "COc1cncc(-c2ccc3[nH]nc(-c4nc5c(-c6cccc(F)c6)ccnc5[nH]4)c3n2)c1 [compound 150]"
recorded_number = 7.05

[[record]]
compound = "Nc1cncc(-c2ccc3[nH]nc(-c4nc5c(-c6ccccc6F)ccnc5[nH]4)c3n2)c1 [compound 171]"
recorded_number = 7.47

[[record]]
compound = "Oc1cncc(-c2ccc3[nH]nc(-c4nc5c(-c6cccc(F)c6)cccc5[nH]4)c3c2)c1 [compound 143]"
recorded_number = 7.35

[[record]]
compound = "CNC(=O)c1ccc(C(=O)Nc2cc3cc(-c4cn(C)nn4)ccc3cn2)cn1 [compound 577]"
recorded_number = 7.25

[[record]]
compound = "Nc1cncc(-c2ccc3[nH]nc(-c4nc5c(-c6ccccc6F)nccc5[nH]4)c3c2)c1 [compound 165]"
recorded_number = 7.70

[[record]]
compound = "Fc1ccc(-c2cncc3[nH]c(-c4n[nH]c5ncc(-c6cncnc6)cc45)cc23)cc1 [compound 319]"
recorded_number = 6.09

[[record]]
compound = "Cc1n[nH]c2ccc(-c3cc(OC[C@H](N)Cc4ccccc4)cnn3)cc12 [compound 53]"
recorded_number = 5.46

[[record]]
compound = "CC(C)Oc1ccc(NC(=O)c2n[nH]c3ccc(-c4cncc(CN5CC6CC(C5)O6)c4)cc23)cn1 [compound 102]"
recorded_number = 7.06

[[record]]
compound = "CN(C)C(=O)Nc1cncc(-c2ccc3[nH]nc(C(=O)Nc4cccnc4)c3c2)c1 [compound 54]"
recorded_number = 7.70

[[record]]
compound = "Cc1cc2[nH]nc(C(=O)Nc3ccc(CN4CCCC4)cc3)c2cc1-c1cccnc1 [compound 60]"
recorded_number = 6.24

[[record]]
compound = "Clc1ccc(-c2cncc3[nH]c(-c4n[nH]c5ccc(-c6cncc(CN7CCCC7)c6)nc45)nc23)s1 [compound 270]"
recorded_number = 7.06

[[record]]
compound = "CN1CCC2(CC1)CN(c1cc(C(=O)Nc3cc4cc(-c5cnn(C)c5CN5CCCCC5)cnc4cn3)ccn1)C2 [compound 610]"
recorded_number = 7.51

[[record]]
compound = "CN1CCC2(CC1)CN(c1cc(C(=O)Nc3cc4cc(-c5cnn(C)c5)ccc4cn3)ccn1)C2 [compound 554]"
recorded_number = 7.80

[[record]]
compound = "O=C(Nc1cncc(-c2cc3c(-c4cc5c(N6CCCCC6)nccc5[nH]4)n[nH]c3cn2)c1)C1CCC1 [compound 461]"
recorded_number = 6.47

[[record]]
compound = "O=C(Nc1cccnc1)c1n[nH]c2ncc(-c3cccnc3)cc12 [compound 61]"
recorded_number = 6.04

[[record]]
compound = "CC(C)CC(=O)Nc1cncc(-c2cnc3[nH]nc(-c4cc5c(-c6cccnc6)ccnc5[nH]4)c3c2)c1 [compound 352]"
recorded_number = 5.01

[[record]]
compound = "Fc1ccc(-c2cncc3[nH]c(-c4n[nH]c5cnc(-c6cncc(CN7CCC(F)(F)C7)c6)cc45)cc23)cc1 [compound 317]"
recorded_number = 5.01

[[record]]
compound = "CCCC(=O)Nc1cncc(-c2cc3c(-c4nc5c(-c6cccc(F)c6)nccc5[nH]4)n[nH]c3cn2)c1 [compound 122]"
recorded_number = 5.16

[[record]]
compound = "Cn1cc(-c2cc3c(-c4nc5c(-c6cccc(F)c6)cncc5[nH]4)n[nH]c3cn2)cn1 [compound 157]"
recorded_number = 6.38

[[record]]
compound = "CN1CCN(c2nccc3[nH]c(-c4n[nH]c5cc(F)c(-c6cnn(C)c6)cc45)nc23)CC1 [compound 219]"
recorded_number = 7.59

[[record]]
compound = "CN1CCC(n2cc(NC(=O)c3n[nH]c4ccc(-c5cnn(C)c5)cc34)cn2)CC1 [compound 106]"
recorded_number = 7.26

[[record]]
compound = "CN(C)Cc1cncc(-c2cnc3[nH]nc(-c4cc5c(-c6cccc(F)c6)cncc5[nH]4)c3c2)c1 [compound 310]"
recorded_number = 7.13

[[record]]
compound = "CS(=O)(=O)NCc1cc(F)cc(-c2nccc3[nH]c(-c4n[nH]c5ccc(-c6cncc(NC(=O)Cc7ccccc7)c6)nc45)cc23)c1 [compound 530]"
recorded_number = 6.82

[[record]]
compound = "Cc1ccncc1-c1ccc2[nH]nc(-c3cc4c(-c5cccnc5)cncc4[nH]3)c2n1 [compound 346]"
recorded_number = 6.88

[[record]]
compound = "FC1(F)CCN(Cc2cncc(-c3cnc4[nH]nc(-c5cc6c(-c7ccncc7)cccc6[nH]5)c4c3)c2)C1 [compound 401]"
recorded_number = 6.05

